Property: abundance fitness; scope: individual variants
B1: POU domain, class 4, transcription factor 3, residues 185 to 256; numbered along this chain, Q15319 (parent)
chain: RELEAFAERFKQRRIKLGVTQADVGAALANLKIPGVGSLSQSTICRFESLTLSHNNMIALKPVLQAWLEEAE

Variants of: B1
Experiment: abundance fitness (aPCA) (normalised: wild type 0, dead -1); higher = more abundant; growth selection in yeast, the domain comes from the species named
Conditions: Homo sapiens

[
  {
    "entrySequence": "RELEAFAERFKQRRIKLGVTQADVGAALANLKIPGVGSLHQSTICRFESLTLSHNNMIALKPVLQAWLEEAE [S40H]",
    "abundance fitness": -0.013
  },
  {
    "entrySequence": "RELEAFAERFKQRRIKLGVTQADVGQALANLKIPGVGSLSQSTICRFESLTLSHNNMIALKPVLQAWLEEAE [A26Q]",
    "abundance fitness": -0.029
  },
  {
    "entrySequence": "RELEAFAERFKQRRIKLGVTQADVGAALANLKIVGVGSLSQSTICRFESLTLSHNNMIALKPVLQAWLEEAE [P34V]",
    "abundance fitness": -0.271
  },
  {
    "entrySequence": "RELEAFAERFKQRRIKLGVTQADVGAALANLKIPGVGSLSQSTICRFESLTLSHNNMIGLKPVLQAWLEEAE [A59G]",
    "abundance fitness": -0.085
  },
  {
    "entrySequence": "RELEAFAERFKQRRIKLGVTQADVGAALANLKIYGVGSLSQSTICRFESLTLSHNNMIALKPVLQAWLEEAE [P34Y]",
    "abundance fitness": -0.379
  },
  {
    "entrySequence": "RELEAFAERFKQRRIKLGVTQADVGAALYNLKIPGVGSLSQSTICRFESLTLSHNNMIALKPVLQAWLEEAE [A29Y]",
    "abundance fitness": -0.305
  },
  {
    "entrySequence": "RELEAFAERFKQRRIKLGVTQADVGAAGANLKIPGVGSLSQSTICRFESLTLSHNNMIALKPVLQAWLEEAE [L28G]",
    "abundance fitness": -0.813
  },
  {
    "entrySequence": "RELEAFAERFKQRRIKLGVTQADVQAALANLKIPGVGSLSQSTICRFESLTLSHNNMIALKPVLQAWLEEAE [G25Q]",
    "abundance fitness": -0.531
  },
  {
    "entrySequence": "RELEAFAERFKQRRIKLGVTQADVGAALANLKIPGVGSLLQSTICRFESLTLSHNNMIALKPVLQAWLEEAE [S40L]",
    "abundance fitness": -0.488
  },
  {
    "entrySequence": "RELEAFAERFKQRRIKLGVTQAHVGAALANLKIPGVGSLSQSTICRFESLTLSHNNMIALKPVLQAWLEEAE [D23H]",
    "abundance fitness": -0.017
  },
  {
    "entrySequence": "RELEAFAERFKQRRIKLGVTQADVGAADANLKIPGVGSLSQSTICRFESLTLSHNNMIALKPVLQAWLEEAE [L28D]",
    "abundance fitness": -0.716
  },
  {
    "entrySequence": "RELEAFAERFKQRRIKLGVTQADVGAALANLKIPGVGSLSQSTICRCESLTLSHNNMIALKPVLQAWLEEAE [F47C]",
    "abundance fitness": -0.982
  },
  {
    "entrySequence": "RELEAFAERFKQRRIKLGVTQADVGAALANLKIAGVGSLSQSTICRFESLTLSHNNMIALKPVLQAWLEEAE [P34A]",
    "abundance fitness": 0.029
  },
  {
    "entrySequence": "RELEAFAERFKQRRIKLGVTQADVGAALANLKIPGAGSLSQSTICRFESLTLSHNNMIALKPVLQAWLEEAE [V36A]",
    "abundance fitness": -0.089
  },
  {
    "entrySequence": "RELEAFAERFKQRRIKLGVTQADVGAALANLKIPGVGSLSQSTICRIESLTLSHNNMIALKPVLQAWLEEAE [F47I]",
    "abundance fitness": -0.836
  },
  {
    "entrySequence": "RELEAFAERFKQRRIKLGVTQADVGAALKNLKIPGVGSLSQSTICRFESLTLSHNNMIALKPVLQAWLEEAE [A29K]",
    "abundance fitness": 0.023
  },
  {
    "entrySequence": "RELEAFAERFKQRRIKLGVTQADVGAALANLKIPGVGSLSQSTICRPESLTLSHNNMIALKPVLQAWLEEAE [F47P]",
    "abundance fitness": -1.02
  },
  {
    "entrySequence": "RELEAFAERFKQRRIKLGVTQADVGAFLANLKIPGVGSLSQSTICRFESLTLSHNNMIALKPVLQAWLEEAE [A27F]",
    "abundance fitness": -0.283
  },
  {
    "entrySequence": "RELEAFAERFKQRRIKLGVTQADVGAALFNLKIPGVGSLSQSTICRFESLTLSHNNMIALKPVLQAWLEEAE [A29F]",
    "abundance fitness": -0.086
  },
  {
    "entrySequence": "RELEAFAERFKQRRIKLGVTQADVGAALAMLKIPGVGSLSQSTICRFESLTLSHNNMIALKPVLQAWLEEAE [N30M]",
    "abundance fitness": -0.239
  },
  {
    "entrySequence": "RELEAFAERFKQRRIKLGVTQAYVGAALANLKIPGVGSLSQSTICRFESLTLSHNNMIALKPVLQAWLEEAE [D23Y]",
    "abundance fitness": -0.411
  },
  {
    "entrySequence": "RELEAFAERFKQRRIKLGVTQADVGCALANLKIPGVGSLSQSTICRFESLTLSHNNMIALKPVLQAWLEEAE [A26C]",
    "abundance fitness": -0.08
  }
]
